# kon listing for each entry below
tested.on: T1, recombinant biotinylated rat PAR2 extracellular residues 1-75, N-terminal AviTag, C-terminal Flag and poly … (rat, UniProt Q63645 26-75, not fully specified; biotin on the AviTag (enzymatic biotinylation))
T1 construct: range 1-75; not shown: N-terminal AviTag (Avidity LLC); C-terminal Flag and poly Histidine tags
T1 chain (looked up): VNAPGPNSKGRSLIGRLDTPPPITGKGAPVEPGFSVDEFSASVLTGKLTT
experimental.protocol: Biacore SPR 25 C, pH 6.0
Give the number; M⁻¹ s⁻¹ is assumed, so skip it.

Example results:
Inquiry: Look up kon: PaB670076 Fab (Fab, V domains shown, Fab; also called ZZ1NHH-F09) VH: EVQLLESGGGLVQPGGSLRLSCAASGFTFSSYAMNWVRQAPGKGLEWVSTISYSGSLISYADSVKGRFTISRDNSKNTLYLQMNSLRAEDTAVYYCARINNDPMDVWGQGTLVTVSS VL: SIELTQPPSVSVSPGQTASITCSGDNLGKKYVQWYQQKPGQSPVLVIYDDSNRPSGIPERFSGSNSGNTATLTISGTQAMDEADYYCHTWDHHHTTGEHNVFGGGTKLTVL
Reply text: 1.66e+06

Inquiry: Recorded kon for PaB670120 Fab (Fab, V domains shown, Fab; also called ZZ1RUC-C11) VH: EVQLLESGGGLVQPGGSLRLSCAASGFTFSSYAMNWVRQAPGKGLEWVSTISYHGHHISYADSHHHRFTISRDNSKNTLYLQMNSLRAEDTAVYYCARINHDPMDVWGQGTLVTVSS VL: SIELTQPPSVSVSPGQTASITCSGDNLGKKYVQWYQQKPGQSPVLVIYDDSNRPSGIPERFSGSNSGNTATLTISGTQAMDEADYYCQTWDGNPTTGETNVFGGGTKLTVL , please?
Reply text: 8.26e+06

Inquiry: Given PaB670103 Fab (Fab, V domains shown, Fab; also called ZZ1RCX-C09) VH: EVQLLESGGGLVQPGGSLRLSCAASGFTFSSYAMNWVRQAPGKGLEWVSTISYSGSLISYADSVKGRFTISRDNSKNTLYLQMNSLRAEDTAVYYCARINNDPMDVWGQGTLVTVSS VL: SIELTQPPSVSVSPGQTASITCSGDNLGKKYVQWYQQKPGQSPVLVIYDDSNRPSGIPERFSGSNSGNTATLTISGTQAMDEADYYCHTWDGHHTTGETNHFGGGTKLTVL , state its recorded kon.
Reply text: 531000

Further cases:
Inquiry: Which measured kon value corresponds to PaB670136 Fab (Fab, V domains shown, Fab; also called ZZ1RUF-A01) VH: EVQLLESGGGLVQPGGSLRLSCAASGFTFSSYAMNWVRQAPGKGLEWVSTISYHGHHISYADSHHHRFTISRDNSKNTLYLQMNSLRAEDTAVYYCARIHHDPMDHWGQGTLVTVSS VL: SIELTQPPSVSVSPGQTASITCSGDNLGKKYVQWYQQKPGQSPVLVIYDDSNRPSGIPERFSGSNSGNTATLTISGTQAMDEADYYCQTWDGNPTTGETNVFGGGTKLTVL ?
Reply text: 1.57e+06

Inquiry: Given the binder PaB670084 Fab (Fab, V domains shown, Fab; also called ZZ1PXA-A05) VH: EVQLLESGGGLVQPGGSLRLSCAASGFTFSSYAMNWVRQAPGKGLEWVSTISHSGHLIHHADSHKGRFTISRDNSKNTLYLQMNSLRAEDTAVYYCARINNDPMDVWGQGTLVTVSS VL: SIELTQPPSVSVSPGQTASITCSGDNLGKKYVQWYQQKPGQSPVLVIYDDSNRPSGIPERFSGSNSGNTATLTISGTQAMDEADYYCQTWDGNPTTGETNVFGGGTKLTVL , what is its reported kon?
Reply text: 2.57e+06

The origin of these recorded values is patent US20180305450A1.
